- target.or.system: peripheral CCK receptors (pancreas) (Rattus norvegicus)
- Construct: Whole pancreas glands from male Wistar rats with a body weight of 150-300 g; from tissue; host or cells: whole pancreas glands of male Wistar rats, washed homogenate
- Sequence (P30551 whole entry): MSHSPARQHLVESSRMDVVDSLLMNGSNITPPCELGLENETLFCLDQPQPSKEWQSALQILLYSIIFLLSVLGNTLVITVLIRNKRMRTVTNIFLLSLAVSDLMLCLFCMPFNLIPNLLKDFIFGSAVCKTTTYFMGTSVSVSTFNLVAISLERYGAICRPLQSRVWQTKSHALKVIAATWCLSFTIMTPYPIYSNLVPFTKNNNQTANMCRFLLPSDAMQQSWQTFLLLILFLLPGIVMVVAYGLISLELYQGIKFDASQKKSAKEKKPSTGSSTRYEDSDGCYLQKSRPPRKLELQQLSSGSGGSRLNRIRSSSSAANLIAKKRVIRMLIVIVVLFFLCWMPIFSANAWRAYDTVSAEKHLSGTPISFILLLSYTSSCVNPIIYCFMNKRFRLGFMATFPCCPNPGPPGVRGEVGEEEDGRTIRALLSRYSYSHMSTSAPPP
- measurement.protocol: peripheral CCK receptor binding affinity on rat pancreas homogenate (inhibition of 3[H]-CCK-8 binding)
- Design: species or system rat (male Wistar)
- condition.set: 0.3 nM 3[H]-CCK-8, 90 min, 25° C., pH 7.4, calculated from IC50 by Cheng-Prusoff, read-out: In vitro binding to peripheral CCK receptors (pancreas) pKi values (converted)
Catalogue of Ki readings, one per entry.
Numbers only; they are read as nM.

Example cases with answers are listed next.
compound: CN1C(=O)C(NC(=O)c2cc3cccc4c3n2CCS4)N=C(c2ccccc2)c2ccccc21 (stereo not shown)
Ki [nM]: 0.977

compound: COc1ccc2c(c1)N(C)C(=O)C(NC(=O)c1cc3cccc4c3n1CCC4)N=C2c1ccc(F)cc1F (stereo not shown)
Ki [nM]: 1.23

compound: O=C(NC1N=C(c2ccccc2)c2ccccc2N(CC2CC2)C1=O)c1cc2cccc3c2n1CCC3 (stereo not shown)
Ki [nM]: 10

compound: COc1ccc2c(c1)N(C)C(=O)C(NC(=O)c1cc3cccc4c3n1CCC4)N=C2c1ccccc1 (single isomer, unassigned; (+)) [Example 2b]
Ki [nM]: 19.5

compound: CC(C)N1C(=O)C(NC(=O)c2cc3cccc4c3n2CCC4)N=C(c2ccccc2)c2ccccc21 (stereo not shown)
Ki [nM]: 24

Looking up COc1ccc2c(c1)N(C)C(=O)C(NC(=O)c1cc3cccc4c3n1CCC4)N=C2c1c(F)cccc1F (stereo not shown) , I see its Ki listed as 1

// sample CN1C(=O)C(NC(=O)c2cc3cccc4c3n2CC4)N=C(c2ccccc2)c2ccccc21 (stereo not shown) , its Ki was 3.72

The compound CN1C(=O)C(NC(=O)c2cc3cccc4c3n2CCO4)N=C(c2ccccc2)c2ccccc21 (stereo not shown) showed Ki equal to 0.646

---

- measurement.protocol: determination of the minimum toxic dose
- Format: in vivo, mouse (male)
- condition.set: mouse, oral; lowest dose causing death or serious symptoms of toxicity; max 300 mg/kg; 24 h
measurement.kind: Minimum toxic dose (mg/kg)
Supply the numeric figure in mg/kg, leaving out any unit text.

molecule: Cc1ccc(C2=NC(NC(=O)c3cc4cccc5c4n3CCC5)C(=O)N(C)c3ccccc32)cc1 (stereo not shown) [Example 30]
measurement.kind: Minimum toxic dose
reported.measurement: 300

Now for a further molecule.
Documented Minimum toxic dose of Cc1ccc2c(c1)C(c1ccccc1F)=NC(NC(=O)c1cc3cccc4c3n1CCC4)C(=O)N2C (stereo not shown) [Example 10] : 300

---

- Tested on: CCK-induced disturbance of stomach emptying
- measurement.protocol: effect of test substances on CCK-induced disturbances of emptying of the stomach (charcoal transport into duodenum)
- Format: in vivo, mouse (female NMRI)
- condition.set: dose 1.0 μmol/kg mouse oral; CCK-8 s.c. 60 min later
measurement.kind: % of Animals in which the CCK Effect was Eliminated (%)
Give your result in % as a bare value.

Example cases with answers are listed next.
compound: COc1ccc2c(c1)N(C)C(=O)C(NC(=O)c1cc3cccc4c3n1CCC4)N=C2c1ccc(F)cc1F (centres unmarked) [Example 15]
reported.measurement: 57
//
compound: CN1C(=O)C(NC(=O)c2cc3cccc4c3n2CCC4)N=C(c2c(F)cccc2F)c2ccccc21 (centres unmarked) [Example 20]
reported.measurement: 50
//
compound: CN1C(=O)C(NC(=O)c2cc3cccc4c3n2CCC4)N=C(C2CCCCC2)c2ccccc21 (centres unmarked) [Example 4]
reported.measurement: 45
//
compound: Cc1ccc2c(c1)C(c1ccc(Cl)c(Cl)c1)=NC(NC(=O)c1cc3cccc4c3n1CCC4)C(=O)N2C (centres unmarked) [Example 27]
reported.measurement: 40

The compound CN1C(=O)C(NC(=O)c2cc3cccc4c3n2CC4)N=C(c2ccccc2)c2ccccc21 (centres unmarked) [Example 33] , tested on CCK-induced disturbance of stomach emptying, showed % of Animals in which the CCK Effect was Eliminated of 50

Ref: patent US5010076A
